assay overview: Circular dichroism, molar ellipticity (Jobin-Yvon CD spectrophotometer)
Type: physicochemical
Design: unit not given here
Overview of reported M-ellip. (210nm) across a group of molecules:
Please give only the number in your answer, with no unit.

molecule	endpoint value
TV-109: 109-mer sequence-defined polypeptide molecular weight marker, molecular weight = 11727 daltons (peptide) AKKYAKKAEKAYAKKAKAAKEKKAYAKKEAKAYKAAEAKKKAKAEAKKYAKEAAKAKKEAYKAEAKKYAKAAKAEKKEYAAAEAKKAEAAKAYKAEAAKAAAKEAAYEA	-6.818
TV-77: 77-mer sequence-defined polypeptide molecular weight marker of Ala, Glu, Tyr, Lys, molecular weight = 8259 daltons (peptide) AKKYAKKEKAYAKKAEKAAKKAEAKAYKAAEAKKKAKAEAKKYAKAAKAEKKEYAAAEAKYKAEAAKAAAKEAAYEA	-4.8365
TV-86: 86-mer sequence-defined polypeptide molecular weight marker of Ala, Glu, Tyr, Lys, molecular weight = 9220 daltons (peptide) AKKYAKKEKAYAKKAEKAAKKAEAKAYKAAEAKKKAKAEAKKYAKAAKAEKKEYAAAEAKYKAEAAKKAYKAEAAKAAAKEAAYEA	-5.4546

Turning now to a further molecule:
[Q] M-ellip. (210nm) lookup needed for TV-66: 66-mer sequence-defined polypeptide molecular weight marker of Ala, Glu, Tyr, Lys, molecular weight = 7040 daltons (peptide) AKKYAKKEKAYAKAKKAEAKAAKKAKAEAKKYAKAAKAEKKEYAAAEAKYKAEAAKAAAKEAAYEA , thanks.
[A] -3.5172

Each recorded value in this set is attributed to patent EP2239269B1.
